All values here come from patent US20200017592A1.

- study-target: T1, recombinant human IL-36R extracellular domain expressed with a C-terminal myc-myc-hexahistidine tag (human, UniProt Q9HB29 20-337)
- T1 construct: also called hIL-36R-MMH; hIL-36R.mmH
- T1 sequence (Q9HB29 other isoform, or with tags, fused parts or gaps limits assumed): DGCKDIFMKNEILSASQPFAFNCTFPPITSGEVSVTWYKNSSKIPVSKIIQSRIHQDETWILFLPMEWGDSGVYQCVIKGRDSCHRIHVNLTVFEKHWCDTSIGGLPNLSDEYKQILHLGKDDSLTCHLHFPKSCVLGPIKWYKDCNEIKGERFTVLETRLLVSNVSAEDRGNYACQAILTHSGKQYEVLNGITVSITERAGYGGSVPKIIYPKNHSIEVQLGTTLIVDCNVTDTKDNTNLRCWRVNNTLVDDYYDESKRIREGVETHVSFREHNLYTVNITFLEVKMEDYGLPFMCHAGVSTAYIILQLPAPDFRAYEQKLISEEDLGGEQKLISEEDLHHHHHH
- measurement-protocol: SPR (Biacore 4000), mAb captured on anti-human Fc, 25°C

binder | unit-info | 100 nM hIL-36R-MMH Bound (RU)
H4H14706P2 (antibody, human IgG4 S228P, kappa, V domains shown) VH: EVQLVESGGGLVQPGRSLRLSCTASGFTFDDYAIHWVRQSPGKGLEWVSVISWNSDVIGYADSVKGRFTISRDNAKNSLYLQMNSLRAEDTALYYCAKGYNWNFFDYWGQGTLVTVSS VL: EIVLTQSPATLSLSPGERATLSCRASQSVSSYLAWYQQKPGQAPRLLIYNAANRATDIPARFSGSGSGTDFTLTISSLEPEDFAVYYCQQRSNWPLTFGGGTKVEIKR | RU | 89
H4H14758P (antibody, human IgG4 S228P, kappa, V domains shown) VH: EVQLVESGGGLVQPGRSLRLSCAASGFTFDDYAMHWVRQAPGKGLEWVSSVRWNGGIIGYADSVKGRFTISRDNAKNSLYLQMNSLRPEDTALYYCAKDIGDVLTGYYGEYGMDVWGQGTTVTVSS VL: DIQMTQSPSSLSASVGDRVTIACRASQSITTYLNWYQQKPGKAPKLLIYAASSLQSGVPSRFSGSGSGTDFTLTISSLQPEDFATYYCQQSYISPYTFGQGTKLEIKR | RU | 87
H4H14731P (antibody, human IgG4 S228P, kappa, V domains shown) VH: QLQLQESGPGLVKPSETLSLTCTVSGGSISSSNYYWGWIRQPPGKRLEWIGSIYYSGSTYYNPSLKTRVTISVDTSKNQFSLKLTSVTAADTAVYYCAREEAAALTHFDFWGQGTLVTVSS VL: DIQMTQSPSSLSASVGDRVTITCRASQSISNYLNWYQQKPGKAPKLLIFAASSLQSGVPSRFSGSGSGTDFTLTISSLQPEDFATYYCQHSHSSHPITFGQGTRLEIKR | RU | 54
H4H14728P (antibody, human IgG4 S228P, kappa, V domains shown) VH: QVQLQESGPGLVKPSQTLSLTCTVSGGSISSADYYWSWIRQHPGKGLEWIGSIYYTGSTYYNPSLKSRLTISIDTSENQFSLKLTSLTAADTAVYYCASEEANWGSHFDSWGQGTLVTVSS VL: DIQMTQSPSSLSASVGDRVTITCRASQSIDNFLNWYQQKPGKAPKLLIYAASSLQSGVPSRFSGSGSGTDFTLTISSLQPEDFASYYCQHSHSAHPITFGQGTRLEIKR | RU | 69
H4H14708P2 (antibody, human IgG4 S228P, kappa, V domains shown) VH: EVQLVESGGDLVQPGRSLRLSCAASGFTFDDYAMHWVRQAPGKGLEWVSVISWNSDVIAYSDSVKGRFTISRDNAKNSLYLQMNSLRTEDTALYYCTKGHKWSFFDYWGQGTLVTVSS VL: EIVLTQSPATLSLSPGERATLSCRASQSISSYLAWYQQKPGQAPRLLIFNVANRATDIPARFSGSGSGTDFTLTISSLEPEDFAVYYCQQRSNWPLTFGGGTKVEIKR | RU | 76
H4H14700P2 (antibody, human IgG4 S228P, kappa, V domains shown) VH: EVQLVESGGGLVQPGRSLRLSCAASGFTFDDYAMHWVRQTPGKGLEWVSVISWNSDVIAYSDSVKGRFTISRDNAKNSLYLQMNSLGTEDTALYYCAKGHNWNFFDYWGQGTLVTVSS VL: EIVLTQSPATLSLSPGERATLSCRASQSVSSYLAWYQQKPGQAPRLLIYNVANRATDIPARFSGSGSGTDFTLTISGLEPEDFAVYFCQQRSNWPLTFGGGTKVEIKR | RU | 67
H4H14709P (antibody, human IgG4 S228P, kappa, V domains shown) VH: EVQLVESGGGLVQPGGSLRLSCAASGFTFSDYAMSWVRQAPGKGLEWVSGISGNGGDTYYGDFVKGRFTISRDNSKNTLYLQMNSLRGEDTAAYFCVIDLDYWGQGTLVTVSS VL: DIQMTQSPSTLSASEGDRVTITCRASQSISSWLAWYQQKPGKAPRLLIYKASILGDGVPSRFSGSGSGTEFTLTISSLQPDDFATYYCHQYNSYLWTFGQGTKVEIKR | RU | 64
